From: patent US5795907A

# system tested: CCKB receptor (Mus musculus, UniProt P56481)
# Construct: The cortex was dissected, weighed and homogenised in 40ml ice-cold buffer; tissue Charles River (supplier of the CD1 mice); host or cells: cerebral cortex membranes of male CD1 mice
# Sequence (P56481 whole entry): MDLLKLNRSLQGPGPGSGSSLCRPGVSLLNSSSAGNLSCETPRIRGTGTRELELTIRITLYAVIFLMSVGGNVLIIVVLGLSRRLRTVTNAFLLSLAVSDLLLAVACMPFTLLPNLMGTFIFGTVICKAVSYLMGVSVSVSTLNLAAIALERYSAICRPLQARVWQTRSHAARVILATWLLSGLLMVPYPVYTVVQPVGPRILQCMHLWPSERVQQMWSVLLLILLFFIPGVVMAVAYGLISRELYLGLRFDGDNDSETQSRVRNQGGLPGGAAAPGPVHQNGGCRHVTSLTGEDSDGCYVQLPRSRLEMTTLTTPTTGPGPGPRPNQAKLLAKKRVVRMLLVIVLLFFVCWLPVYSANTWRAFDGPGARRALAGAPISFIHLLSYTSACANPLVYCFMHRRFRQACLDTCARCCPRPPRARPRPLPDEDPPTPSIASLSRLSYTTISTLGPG
# procedure summary: CCKB receptor radioligand binding assay in mouse cortical membranes ([125I]-CCK8S)
# assay context: [125I]-CCK8S 200 pM, 150 min at 21±3°, read-out: CCKB pKi (converted)
measured quantity: Ki (nM)

compound	readout units	Ki
O=C(O)c1ccc(Cl)c(NC(=O)[C@H](Cc2ccccc2)NC(=O)c2cc3[nH]cnc3cc2C(=O)NCC23CC4CC(CC(C4)C2)C3)c1	nM	25.1

I = C[C@@H](NC(=O)c1cc2ccccc2cc1C(=O)NCC12CC3CC(CC(C3)C1)C2)C(=O)O
II = O=C(O)c1cc(NC(=O)C(Cc2c(F)c(F)c(F)c(F)c2F)NC(=O)c2cc3[nH]cnc3cc2C(=O)NCC23CC4CC(CC(C4)C2)C3)cc(C(=O)O)c1 (racemic)
III = O=C(O)c1cc(NC(=O)[C@H](Cc2ccc(I)cc2)NC(=O)c2cc3[nH]cnc3cc2C(=O)NCC23CC4CC(CC(C4)C2)C3)cc(C(=O)O)c1
IV = O=C(NCC12CC3CC(CC(C3)C1)C2)c1cc2[nH]ccc2cc1C(=O)N[C@@H](Cc1ccccc1F)C(=O)Nc1cc(-c2nn[nH]n2)cc(-c2nn[nH]n2)c1
V = O=C(NCC12CC3CC(CC(C3)C1)C2)c1cc(Cl)c(Cl)cc1C(=O)N1CCC[C@@H]1C(=O)O
Ask | Order each entry by recorded Ki, climbing from the minimum. A complete answer lists every label in the requested sequence.
Reply | IV, II, III, I, V
(IV: 0.794 nM, II: 1.26 nM, III: 25.1 nM, I: 1000 nM, V: 2000 nM)

====

# system tested: CCKB receptor (Mus musculus)
# Construct: The cortex was dissected, weighed and homogenised in 40ml ice-cold buffer; tissue Charles River (supplier of the CD1 mice); host or cells: cerebral cortex membranes of male CD1 mice
# procedure summary: CCKB receptor radioligand binding assay in mouse cortical membranes ([125I]-CCK8S)
# assay context: [125I]-CCK8S 200 pM, 150 min at 21±3°
measured quantity: CCKB pKi

Guide cases for CCKB pKi, answers given:
item smiles	system tested	experimental result
O=C(O)c1cc(NC(=O)[C@H](Cc2ccccc2)NC(=O)c2cc3ccn(S(=O)(=O)c4ccccc4)c3cc2C(=O)NCC23CC4CC(CC(C4)C2)C3)cc(C(=O)O)c1	CCKB receptor (Mus musculus)	7.1
O=C(O)c1cc(NC(=O)[C@H](Cc2ccccc2)NC(=O)c2cc3ccccc3cc2C(=O)NCC23CC4CC(CC(C4)C2)C3)cc(C(=O)O)c1	CCKB receptor (Mus musculus)	7.9
CC(=O)n1ccc2cc(C(=O)N[C@@H](Cc3ccccc3)C(=O)Nc3cc(C(=O)O)cc(C(=O)O)c3)c(C(=O)NCC34CC5CC(CC(C5)C3)C4)cc21	CCKB receptor (Mus musculus)	8.7
O=C(NCC12CC3CC(CC(C3)C1)C2)c1cc2[nH]ccc2cc1C(=O)N[C@@H](Cc1ccccc1)C(=O)Nc1cccc(NS(=O)(=O)C(F)(F)F)c1	CCKB receptor (Mus musculus)	7.4
COC(=O)c1cc(NC(=O)[C@H](Cc2ccccc2)NC(=O)c2cc3ccoc3cc2C(=O)NCC23CC4CC(CC(C4)C2)C3)cc(C(=O)OC)c1	CCKB receptor (Mus musculus)	6.5

1 = CC(=O)Oc1cc(OC(C)=O)c2cc(C(=O)NCC34CC5CC(CC(C5)C3)C4)c(C(=O)N[C@@H](Cc3ccccc3)C(=O)Nc3cc(C(=O)O)cc(C(=O)O)c3)cc2c1
2 = C[C@@H](NC(=O)C[C@@H]1CCCN1C(=O)c1cc2ccccc2cc1C(=O)NCC12CC3CC(CC(C3)C1)C2)C(=O)O
Ask | // task: argmin of CCKB pKi over [ 1 , 2 ] Return value: the label identifying the chosen record.
Reply | 2
(2: 5.6, 1: 8.1)

====

# system tested: CCKA (Cavia porcellus)
# Construct: The pancreatata were homogenised in 40 ml ice-cold HEPES buffer using a polytron; from tissue; host or cells: pancreas membranes of male Dunkin Hartley guinea-pigs
# Sequence (Q63931 whole entry): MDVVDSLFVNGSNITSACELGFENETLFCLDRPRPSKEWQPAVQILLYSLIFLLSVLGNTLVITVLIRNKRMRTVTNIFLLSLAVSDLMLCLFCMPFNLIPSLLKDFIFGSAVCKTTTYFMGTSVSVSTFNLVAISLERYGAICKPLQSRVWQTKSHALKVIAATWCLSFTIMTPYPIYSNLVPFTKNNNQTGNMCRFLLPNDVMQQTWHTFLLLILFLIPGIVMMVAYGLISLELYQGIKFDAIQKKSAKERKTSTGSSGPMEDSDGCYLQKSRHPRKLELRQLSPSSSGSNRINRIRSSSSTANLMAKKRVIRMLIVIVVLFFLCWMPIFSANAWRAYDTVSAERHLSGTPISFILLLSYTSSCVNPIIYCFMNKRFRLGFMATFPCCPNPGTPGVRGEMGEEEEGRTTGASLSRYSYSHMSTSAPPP
# procedure summary: CCKA radioligand binding assay in guinea-pig pancreas membranes ([125I]-CCK8(S))
# assay context: PD134,308 present, 150 minutes at 21±3°, read-out: CCKA pKi (converted)
measured quantity: Ki (µM)

item smiles	Ki, µM
O=Cc1cc(C=O)cc(NC(=O)[C@H](Cc2ccccc2)NC(=O)c2cc3[nH]cnc3cc2C(=O)NCC23CC4CC(CC(C4)C2)C3)c1	1

A = O=C(NCC12CC3CC(CC(C3)C1)C2)c1cc2[nH]ccc2cc1C(=O)N[C@@H](Cc1ccccc1)C(=O)Nc1cc(-c2nn[nH]n2)cc(-c2nn[nH]n2)c1
B = O=C(NCC12CC3CC(CC(C3)C1)C2)c1cc2ccccc2cc1C(=O)N1CCC[C@@H]1C(=O)O
C = C[C@H](NC(=O)c1cc2cc[nH]c2cc1C(=O)NCC12CC3CC(CC(C3)C1)C2)C(=O)Nc1cc(C(=O)O)cc(C(=O)O)c1
D = O=C(NCC12CC3CC(CC(C3)C1)C2)c1cc2nc[nH]c2cc1C(=O)N[C@@H](Cc1ccccc1F)C(=O)Nc1cc(-c2nn[nH]n2)cc(-c2nn[nH]n2)c1
E = COC(=O)c1cc(NC(=O)[C@H](Cc2ccccc2)NC(=O)c2cc3ccccc3cc2C(=O)NCC23CC4CC(CC(C4)C2)C3)cc(C(=O)OC)c1
Ask | # rank_down: sort by Ki, max first A complete answer lists every label in the requested sequence.
Reply | E, C, B, D, A

I = C[C@@H](NC(=O)c1cc2ccccc2cc1C(=O)NCC12CC3CC(CC(C3)C1)C2)C(=O)O
II = Cn1ccc2cc(C(=O)N[C@@H](Cc3ccccc3)C(=O)Nc3cc(C(=O)O)cc(C(=O)O)c3)c(C(=O)NCC34CC5CC(CC(C5)C3)C4)cc21
Ask | For the two items I and II , which reports the higher Ki value? Return value: the label identifying the chosen record.
Reply | I
(I: 6.31 µM, II: 3.16 µM)

====

# system tested: gastrin (Rattus norvegicus, UniProt P30553)
# Construct: The stomach was lowered into a jacketed organ bath containing 40 ml of buffered solution; from tissue; host or cells: isolated perfused whole stomach of immature rats (ca. 21 days old)
# Sequence (P30553 1-452): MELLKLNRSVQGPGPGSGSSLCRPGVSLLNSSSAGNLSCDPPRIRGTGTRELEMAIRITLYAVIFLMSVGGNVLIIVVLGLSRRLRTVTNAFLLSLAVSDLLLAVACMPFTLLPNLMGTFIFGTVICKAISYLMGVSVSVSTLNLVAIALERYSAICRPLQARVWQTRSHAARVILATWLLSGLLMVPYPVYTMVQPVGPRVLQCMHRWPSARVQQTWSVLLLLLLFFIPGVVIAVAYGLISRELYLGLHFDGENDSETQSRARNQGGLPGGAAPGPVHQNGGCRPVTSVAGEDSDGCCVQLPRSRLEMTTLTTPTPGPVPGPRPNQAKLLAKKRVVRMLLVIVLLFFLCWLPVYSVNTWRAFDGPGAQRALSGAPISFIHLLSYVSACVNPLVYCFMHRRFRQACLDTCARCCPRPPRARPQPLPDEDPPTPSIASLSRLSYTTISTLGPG
# procedure summary: gastrin antagonist activity in an immature rat stomach assay (pentagastrin-stimulated acid secretion)
# assay context: cumulative pentagastrin dose-response curves after 60 min with drug, read-out: Gastrin pKB (converted)
measured quantity: Kb (nM)

molecule	readout units	Kb
O=C(O)c1cc(NC(=O)C(Cc2c(F)c(F)c(F)c(F)c2F)NC(=O)c2cc3[nH]cnc3cc2C(=O)NCC23CC4CC(CC(C4)C2)C3)cc(C(=O)O)c1 (racemic) [Example 136]	nM	0.316

I = CC(=O)NS(=O)(=O)c1cccc(NC(=O)[C@H](Cc2ccccc2)NC(=O)c2cc3[nH]cnc3cc2C(=O)NCC23CC4CC(CC(C4)C2)C3)c1 [Example 137]
II = O=C(NO)c1cc(NC(=O)[C@H](Cc2ccccc2)NC(=O)c2cc3cc[nH]c3cc2C(=O)NCC23CC4CC(CC(C4)C2)C3)cc(C(=O)NO)c1 [Example 34]
Ask | For the two items I and II , which reports the higher Kb value? Return value: the label identifying the chosen record.
Reply | I

====

# system tested: CCKB receptor (Mus musculus, UniProt P56481)
# Construct: The cortex was dissected, weighed and homogenised in 40ml ice-cold buffer; tissue Charles River (supplier of the CD1 mice); host or cells: cerebral cortex membranes of male CD1 mice
# procedure summary: CCKB receptor radioligand binding assay in mouse cortical membranes ([125I]-CCK8S)
# assay context: [125I]-CCK8S 200 pM, 150 min at 21±3°
# Method: The compounds of the examples were tested for binding at the CCKB receptor in mouse cortical membranes by means of a radioligand binding assay. The procedure was as follows: The whole brains from male mice (CD1 22-25 g; Charles River) were removed and placed in ice-cold buffer (pH7.2 @ 21±3°) of the following composition (mM); 10 HEPES, 130 NaCl, 4.7 KCl, 5 MgCl2, 1 EDTA and containing 0.25g.^-1 bacitracin. […]
measured quantity: CCKB pKi

item smiles	CCKB pKi
O=C(NCC12CC3CC(CC(C3)C1)C2)c1cc2[nH]ccc2cc1C(=O)N[C@@H](Cc1ccccc1)C(=O)Nc1cccc(S(=O)(=O)NC(=O)C(F)(F)F)c1	8.4
O=C(O)c1cc(NC(=O)[C@H](Cc2ccccc2F)NC(=O)c2cc3[nH]cnc3cc2C(=O)NCC23CC4CC(CC(C4)C2)C3)cc(C(=O)O)c1	8.4
Cn1cnc2cc(C(=O)N[C@@H](Cc3ccccc3)C(=O)Nc3cc(C(=O)O)cc(C(=O)O)c3)c(C(=O)NCC34CC5CC(CC(C5)C3)C4)cc21	7.6
O=C(NCC12CC3CC(CC(C3)C1)C2)c1cc2nc[nH]c2cc1C(=O)N[C@@H](Cc1ccccc1)C(=O)Nc1cc(CO)cc(CO)c1	6.2
O=C(O)c1cc(NC(=O)[C@H](Cc2ccccc2)NC(=O)c2ccc3[nH]cnc3c2C(=O)NCC23CC4CC(CC(C4)C2)C3)cc(C(=O)O)c1	8.1
NS(=O)(=O)c1cc(NC(=O)[C@H](Cc2ccccc2)NC(=O)c2cc3cc[nH]c3cc2C(=O)NCC23CC4CC(CC(C4)C2)C3)cc(S(N)(=O)=O)c1	6.3
O=C(NCC12CC3CC(CC(C3)C1)C2)c1cc2[nH]ccc2cc1C(=O)N[C@@H](Cc1ccccc1)C(=O)Nc1cc(NS(=O)(=O)C(F)(F)F)cc(NS(=O)(=O)C(F)(F)F)c1	8.1
O=C(NCC12CC3CC(CC(C3)C1)C2)c1cc2[nH]ccc2cc1C(=O)N[C@@H](Cc1ccccc1)C(=O)Nc1cc(NC(=O)C(F)(F)F)cc(NC(=O)C(F)(F)F)c1	6.7
CC(=O)NS(=O)(=O)c1cccc(NC(=O)[C@H](Cc2ccccc2)NC(=O)c2cc3cc[nH]c3cc2C(=O)NCC23CC4CC(CC(C4)C2)C3)c1	8.1
CC(=O)Oc1cc(OC(C)=O)c2cc(C(=O)N[C@@H](Cc3ccccc3)C(=O)Nc3cc(C(=O)O)cc(C(=O)O)c3)c(C(=O)NCC34CC5CC(CC(C5)C3)C4)cc2c1	8.1
CN(O)C(=O)c1cc(NC(=O)[C@H](Cc2ccccc2)NC(=O)c2cc3cc[nH]c3cc2C(=O)NCC23CC4CC(CC(C4)C2)C3)cc(C(=O)N(C)O)c1	7.0
O=C(O)CNC(=O)[C@@H](Cc1ccccc1)NC(=O)c1cc2cc[nH]c2cc1C(=O)NCC12CC3CC(CC(C3)C1)C2	7.4
O=C(O)c1cc(NC(=O)[C@H](Cc2ccc(O)cc2)NC(=O)c2cc3[nH]cnc3cc2C(=O)NCC23CC4CC(CC(C4)C2)C3)cc(C(=O)O)c1	7.8
Nc1cccc2cc(C(=O)N[C@@H](Cc3ccccc3)C(=O)Nc3cc(C(=O)O)cc(C(=O)O)c3)c(C(=O)NCC34CC5CC(CC(C5)C3)C4)cc12	7.6
O=C(O)c1cc(NC(=O)[C@H](Cc2ccccc2Cl)NC(=O)c2cc3[nH]cnc3cc2C(=O)NCC23CC4CC(CC(C4)C2)C3)cc(C(=O)O)c1	8.3
O=C(O)c1cc(NC(=O)[C@H](Cc2ccccc2)NC(=O)c2c(C(=O)NCC34CC5CC(CC(C5)C3)C4)ccc3[nH]cnc23)cc(C(=O)O)c1	6.9
CN(C(=O)[C@H](Cc1ccccc1)NC(=O)c1cc2[nH]cnc2cc1C(=O)NCC12CC3CC(CC(C3)C1)C2)c1cc(C(=O)O)cc(C(=O)O)c1	6.3
C[C@H](NC(=O)c1cc2[nH]cnc2cc1C(=O)NCC1CCCCCC1)C(=O)Nc1cc(C(=O)O)cc(C(=O)O)c1	6.0
O=C(O)c1cc(NC(=O)[C@H](Cc2ccccc2)NC(=O)c2cc3[nH]cnc3cc2C(=O)NCC23CC4CC(CC(C4)C2)C3)ccc1F	7.8
O=C(O)c1cc(NC(=O)[C@H](Cc2ccccc2)NC(=O)c2cc3ccsc3cc2C(=O)NCC23CC4CC(CC(C4)C2)C3)cc(C(=O)O)c1	8.9
O=C(O)c1ccc(C(=O)O)c(NC(=O)[C@H](Cc2ccccc2)NC(=O)c2cc3[nH]cnc3cc2C(=O)NCC23CC4CC(CC(C4)C2)C3)c1	7.3
CC(C)(C)NS(=O)(=O)c1cc(NC(=O)[C@H](Cc2ccccc2)NC(=O)c2cc3cc[nH]c3cc2C(=O)NCC23CC4CC(CC(C4)C2)C3)cc(S(=O)(=O)NC(C)(C)C)c1	5.9
